# TARGET_OR_TEST_SYSTEM: Dihydrofolate reductase (Homo sapiens)
# Sequence (P00374 whole entry): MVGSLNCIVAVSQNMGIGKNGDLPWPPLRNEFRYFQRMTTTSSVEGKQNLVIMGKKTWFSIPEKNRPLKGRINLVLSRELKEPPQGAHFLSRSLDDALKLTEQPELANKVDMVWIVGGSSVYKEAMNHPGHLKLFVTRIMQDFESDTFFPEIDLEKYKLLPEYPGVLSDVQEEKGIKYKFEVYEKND
QUANTITY_KIND: pIC50
Answers are plain numbers, as −log10 of the molar value.

Input: I have this molecule here, Nc1ncc(N2CCN(c3ccccc3-c3ccccc3)CC2)c(N)n1 [US11530198, Example 12] , and I need its recorded pIC50.
Output: 6.67
